These data points were gathered from patent US8765746B2.

# assayTarget: PI3Kdelta (Homo sapiens, UniProt O00329)
# Construct: His (N); host or cells: SF9 insect cells (baculovirus)
# Sequence (O00329 whole entry): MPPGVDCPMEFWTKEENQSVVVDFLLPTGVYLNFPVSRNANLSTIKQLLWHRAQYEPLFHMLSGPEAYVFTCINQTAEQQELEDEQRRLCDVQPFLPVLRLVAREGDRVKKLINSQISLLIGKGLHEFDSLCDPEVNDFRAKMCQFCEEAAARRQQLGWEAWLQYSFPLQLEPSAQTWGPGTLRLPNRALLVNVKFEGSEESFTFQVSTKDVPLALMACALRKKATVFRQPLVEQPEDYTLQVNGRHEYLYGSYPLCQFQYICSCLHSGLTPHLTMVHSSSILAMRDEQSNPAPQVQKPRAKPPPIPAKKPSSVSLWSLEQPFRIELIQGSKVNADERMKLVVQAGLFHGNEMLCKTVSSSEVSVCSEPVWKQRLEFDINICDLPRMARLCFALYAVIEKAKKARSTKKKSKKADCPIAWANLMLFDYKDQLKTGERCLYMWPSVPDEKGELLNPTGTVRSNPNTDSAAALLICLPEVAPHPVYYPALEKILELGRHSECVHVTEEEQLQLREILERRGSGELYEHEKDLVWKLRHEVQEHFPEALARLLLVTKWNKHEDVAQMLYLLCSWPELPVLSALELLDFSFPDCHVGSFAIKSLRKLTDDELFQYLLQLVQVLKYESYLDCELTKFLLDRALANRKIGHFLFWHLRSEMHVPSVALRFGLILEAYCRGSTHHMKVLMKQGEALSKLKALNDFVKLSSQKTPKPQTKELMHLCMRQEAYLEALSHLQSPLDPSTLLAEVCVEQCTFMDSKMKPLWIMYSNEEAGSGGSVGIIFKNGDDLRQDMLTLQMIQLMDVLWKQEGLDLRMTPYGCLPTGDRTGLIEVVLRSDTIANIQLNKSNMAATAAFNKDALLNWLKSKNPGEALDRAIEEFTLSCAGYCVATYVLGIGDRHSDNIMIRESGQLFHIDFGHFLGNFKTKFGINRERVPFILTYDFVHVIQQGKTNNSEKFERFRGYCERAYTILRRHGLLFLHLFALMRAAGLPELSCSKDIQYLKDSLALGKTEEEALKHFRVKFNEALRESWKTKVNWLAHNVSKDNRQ
# Sequence (P27986 whole entry partner): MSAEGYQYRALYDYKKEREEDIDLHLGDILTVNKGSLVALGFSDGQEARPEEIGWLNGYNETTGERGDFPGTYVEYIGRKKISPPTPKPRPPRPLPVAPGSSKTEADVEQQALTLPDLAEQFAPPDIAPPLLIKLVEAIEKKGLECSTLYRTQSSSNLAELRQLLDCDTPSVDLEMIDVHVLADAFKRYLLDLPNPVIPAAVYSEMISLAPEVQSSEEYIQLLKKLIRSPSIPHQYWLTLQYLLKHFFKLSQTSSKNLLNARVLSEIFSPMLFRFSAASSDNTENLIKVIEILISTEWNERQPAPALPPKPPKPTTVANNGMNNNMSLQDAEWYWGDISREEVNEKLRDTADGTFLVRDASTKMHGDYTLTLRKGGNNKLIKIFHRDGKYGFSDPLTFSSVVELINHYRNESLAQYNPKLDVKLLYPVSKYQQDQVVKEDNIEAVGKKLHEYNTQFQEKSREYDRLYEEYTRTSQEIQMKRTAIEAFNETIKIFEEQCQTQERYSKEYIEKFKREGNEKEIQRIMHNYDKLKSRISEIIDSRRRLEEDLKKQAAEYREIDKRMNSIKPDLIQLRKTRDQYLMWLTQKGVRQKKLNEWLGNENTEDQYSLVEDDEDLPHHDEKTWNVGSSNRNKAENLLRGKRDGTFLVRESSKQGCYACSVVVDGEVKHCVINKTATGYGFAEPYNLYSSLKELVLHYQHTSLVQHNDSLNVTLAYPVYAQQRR
# procedureSummary: Human PI3K delta enzyme assay (HTRF, as for PI3K alpha)
# Type: biochemical
# reportedConditions: read-out: PI3Kdelta % inh
propertyLabel: inhibition at 1.11 µM (%)
Dear colleague, please return just the value in %, with no unit written.

Here's what some known entries look like.
| compound | inhibition at 1.11 µM (%) |
| --- | --- |
| CC1(C)C(=O)c2sc(N3CCOCC3)cc2C1c1ccc(Cl)cc1 (stereo not shown) [Compound 161] | 59.3 |
| O=C1CC(c2ccc(Cl)cc2)c2cc(N3CCOCC3)sc21 (stereo not shown) [Compound 28] | 75 |

Dear colleague, I am looking for the recorded inhibition at 1.11 µM of the following compound: O=C1CC(c2ccc(Cl)cc2)c2cc(-c3ccncc3)sc2N1 (stereo not shown) [Compound 182]
48.5

// inhibition at 1.11 µM lookup, key: N#Cc1c(N2CCOCC2)sc2c1C(c1ccc(Cl)cc1)CCNC2=O (stereo not shown) [Compound 150]
99.9
